System: Bacillus subtilis
Assay: Inhibition of DHPS in Bacillus subtilis assessed as antibacterial activity by measuring inhibition zone at 5 mg/mL incubated for 24 hrs by disk diffusion method
Calls of active or inactive are those of the source. No cut-off for these calls is given here.
QUANTITY_NAME: inhibition zone (IZ)

SMILES_REPR	QUANTITY_NAME	RESULT
Cc1noc(NS(=O)(=O)c2ccc(N)cc2)c1C	inhibition zone (IZ)	20.8 mm
CCS/C(NC12CC3CC(CC(C3)C1)C2)=C(\C#N)C(=O)Nc1ccc(S(=O)(=O)Nc2onc(C)c2C)cc1	inhibition zone (IZ)	inactive
CCN/C(S[C@@H]1O[C@H](COC(C)=O)[C@H](OC(C)=O)[C@H](OC(C)=O)[C@H]1OC(C)=O)=C(/C#N)C(=O)Nc1ccc(S(=O)(=O)Nc2onc(C)c2C)cc1	inhibition zone (IZ)	17.6 mm
CCN/C(S[C@@H]1O[C@H](COC(C)=O)[C@@H](OC(C)=O)[C@H](OC(C)=O)[C@H]1OC(C)=O)=C(/C#N)C(=O)Nc1ccc(S(=O)(=O)Nc2onc(C)c2C)cc1	inhibition zone (IZ)	27.5 mm
CN/C(S)=C(/C#N)C(=O)Nc1ccc(S(=O)(=O)Nc2onc(C)c2C)cc1	inhibition zone (IZ)	22.4 mm
C=CCN/C(SCC)=C(/C#N)C(=O)Nc1ccc(S(=O)(=O)Nc2onc(C)c2C)cc1	inhibition zone (IZ)	26.8 mm

// lookup inhibition zone (IZ) for CC(=O)OC[C@H]1O[C@@H](S/C(Nc2ccccc2)=C(\C#N)C(=O)Nc2ccc(S(=O)(=O)Nc3onc(C)c3C)cc2)[C@H](OC(C)=O)[C@@H](OC(C)=O)[C@H]1OC(C)=O 19.8 mm

Param item: CN/C(S[C@@H]1O[C@H](COC(C)=O)[C@@H](OC(C)=O)[C@H](OC(C)=O)[C@H]1OC(C)=O)=C(/C#N)C(=O)Nc1ccc(S(=O)(=O)Nc2onc(C)c2C)cc1 23.4 mm

Param item: C=CCN/C(S[C@@H]1O[C@H](COC(C)=O)[C@@H](OC(C)=O)[C@H](OC(C)=O)[C@H]1OC(C)=O)=C(/C#N)C(=O)Nc1ccc(S(=O)(=O)Nc2onc(C)c2C)cc1 28.6 mm

Param item: CCN/C(S)=C(/C#N)C(=O)Nc1ccc(S(=O)(=O)Nc2onc(C)c2C)cc1 15.4 mm

Param item: Cc1noc(NS(=O)(=O)c2ccc(NC(=O)/C(C#N)=C(/S)Nc3ccccc3)cc2)c1C inactive

Param item: Cc1noc(NS(=O)(=O)c2ccc(NC(=O)c3c(N)n[nH]c3Nc3ccccc3)cc2)c1C 12.6 mm

Param item: CS/C(Nc1ccccc1)=C(\C#N)C(=O)Nc1ccc(S(=O)(=O)Nc2onc(C)c2C)cc1 inactive

Param item: CCS/C(NC)=C(\C#N)C(=O)Nc1ccc(S(=O)(=O)Nc2onc(C)c2C)cc1 21.2 mm

Param item: CN/C(SC)=C(/C#N)C(=O)Nc1ccc(S(=O)(=O)Nc2onc(C)c2C)cc1 inactive

Param item: CCS/C(Nc1ccccc1)=C(\C#N)C(=O)Nc1ccc(S(=O)(=O)Nc2onc(C)c2C)cc1 11.2 mm
